System: HUVECs
procedure text: High-content imaging cytotoxicity in HUVECs, 24 h
Type: cell-based, human
conditions: Homo sapiens, HUVEC, 24 h, HUVECs, 24 hr, 100.00 µM; 0.00 µM = 100.00; read-out: huvec.mitoint.24hr
Where a name gives a salt, the structure may show the parent alone.
Would you please tag the item Fulfilled when its activity at 100 µM is 50% or above, and Not fulfilled when it is below?

Prompt: Assess whether reported activity at 100 µM for `Oc1ccc(-c2cccc(Cl)c2)cc1Cl` sits at 50% or higher.
Completion: Not fulfilled

Prompt: Would you mind doing O=S(=O)(O)Oc1cc(Cl)ccc1-c1ccccc1 [2-yl PCB 3 sulfate] as well?
Completion: Fulfilled

Prompt: Also `O=C1C=CC(=O)C(c2ccc(Cl)cc2)=C1` ?
Completion: Not fulfilled

* * *

Test system: iCell cardiomyocytes (human iPSC-derived cardiomyocytes)
procedure text: High-content imaging of cytotoxicity and mitochondrial integrity in iPSC-CMs
Assay type: cell-based
conditions: Homo sapiens, Cardiomyocyte, 24 h, 100.00 µM; 0.00 µM = 100.00; read-out: cm.mito.24hrs
Counter-ions that a name gives are not always drawn.
measure: activity at 100 µM
Number first, unit second: that is the form wanted.

In the examples that follow, each entry is paired with its recorded activity at 100 µM.
O=S(=O)(O)Oc1cc(Cl)ccc1-c1ccccc1 [2-yl PCB 3 sulfate]	99.6%
Oc1ccc(-c2cccc(Cl)c2)cc1Cl	0.024%
Oc1cc(Cl)cc(-c2cccc(Cl)c2)c1	0%

API: the following record is the query input.
Prompt: Look at this compound and give its reported activity at 100 µM. O=S(=O)(O)Oc1ccc(-c2cccc(Cl)c2)cc1Cl [4-yl PCB 11 sulfate]
Completion: 5.02%

* * *

Test system: iCell cardiomyocytes (human iPSC-derived cardiomyocytes)
procedure text: Intracellular Ca2+ flux / beating parameters in iCell cardiomyocytes (FLIPR tetra), 90 min or 24 h
Format: cell-based
conditions: Homo sapiens, Cardiomyocyte, 1.5 h, 100.00 µM; 0.00 µM = 100.00; read-out: cm.amp.avg.90min
Structures can show the parent of a compound that is named as a salt.
measure: activity at 100 µM (%)
Answers are plain numbers, in %.

Consider the following illustrative entries.
Oc1cccc(-c2ccc(Cl)cc2)c1	0
Oc1ccc(O)c(-c2ccc(Cl)cc2)c1	9.07
Oc1cc(Cl)cc(-c2cccc(Cl)c2)c1	0

Give activity at 100 µM for all molecules that follow.
1. O=S(=O)(O)Oc1ccc(-c2cccc(Cl)c2)cc1Cl [4-yl PCB 11 sulfate]
2. O=S(=O)(O)Oc1cc(Cl)ccc1-c1ccccc1 [2-yl PCB 3 sulfate]

Completion:
45.7
114

* * *

Record form. Attribute: activity at 0.1 µM. Fill in for each entry.
Tested on: HUVECs
procedure text: Tube formation (tubulogenesis) assay in HUVECs, 18 h
Assay type: cell-based, human
conditions: Homo sapiens, HUVEC, 18 h, HUVECs, 0.10 µM, 0.00 µM = 100.00, read-out: huvec.tlps.18hr
Where a name gives a salt, the structure may show the parent alone.
Give bare numbers, in %.

A selection of reference data follows.
O=S(=O)(O)Oc1ccc(-c2cccc(Cl)c2)cc1Cl [4-yl PCB 11 sulfate]	133
COc1ccc(-c2cccc(Cl)c2)cc1Cl	117
Oc1ccc(-c2cccc(Cl)c2)cc1Cl	127

Prompt: Fill blank: measured activity at 0.1 µM of the molecule `Oc1cc(Cl)cc(-c2cccc(Cl)c2)c1` is ____.
Completion: 186
